ASSAYED SYSTEM: Dual specificity protein phosphatase 6 (Rattus norvegicus) (UniProt Q64346)
Sequence (Q64346 whole entry, looked up): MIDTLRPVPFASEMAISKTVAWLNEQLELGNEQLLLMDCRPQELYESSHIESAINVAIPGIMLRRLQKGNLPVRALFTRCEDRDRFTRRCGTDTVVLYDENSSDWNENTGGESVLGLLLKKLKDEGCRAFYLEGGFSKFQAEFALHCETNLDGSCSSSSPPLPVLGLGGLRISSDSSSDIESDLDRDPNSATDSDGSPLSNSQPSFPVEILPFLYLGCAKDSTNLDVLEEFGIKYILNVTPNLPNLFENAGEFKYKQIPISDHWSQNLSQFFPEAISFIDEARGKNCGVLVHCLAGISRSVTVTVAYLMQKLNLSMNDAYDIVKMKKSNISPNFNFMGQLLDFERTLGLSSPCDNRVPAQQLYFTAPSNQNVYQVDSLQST
PROTOCOL TEXT: MKP-3 phosphatase inhibitors, primary screen, biochemical, rat enzyme, in vitro (AID 425)
ASSAY CONTEXT: recombinant MKP-3 phosphatase activity, fluorescence; at 20 µM
In all, about 110,000 compounds went through this assay and about 190 (0.17%) were called active. No stated cut-off is given here; in the data, active means inhibition above about 50%; inactive means the rest. Many of the other results were omitted from the sample, so actives are more common in it than they were. Measured potencies and affinities stand elsewhere.
Possible outcomes: active, inactive

* O=C1NC(=S)N/C1=C/c1cc2c(cc1Cl)OCO2 | inactive
* COC(=O)c1c(N=CN(C)C)c(C#N)c(C)n1-c1ccccc1 | inactive
* Cn1c(=O)oc2cc(S(=O)(=O)Nc3ccc(Cl)cc3F)ccc21 | inactive
* O=C1C=C/C(=N\S(=O)(=O)c2ccc(Cl)c([N+](=O)[O-])c2)c2ccccc21 | active
* O=C1/C(=C/c2cccc3ccccc23)SC(=S)N1Cc1ccco1 | inactive
* O=C1C=CC(=NS(=O)(=O)c2ccc(Cl)c([N+](=O)[O-])c2)C=C1 | inactive
* COc1ccccc1/C=C1\SC(=S)N(Cc2ccco2)C1=O | inactive
* O=C1NC(=S)S/C1=C\c1ccccc1OS(=O)(=O)c1ccc([N+](=O)[O-])cc1 | inactive
* C/C(=N\OCC(=O)N=Nc1c(O)n(CN2CCN(C)CC2)c2ccccc12)c1cccs1 | inactive
* COc1ccc(OC)c(CN2C(=O)c3ccccc3C2C(=O)NCc2cccnc2)c1 (stereo unspecified) | inactive
* COc1ccc(/C=C2/SC(=O)N(CC(=O)Nc3ccc(C)c(C)c3)C2=O)cc1OC | inactive
* COc1cc(F)ccc1S(=O)(=O)N1CCCCCC1 | inactive
* CCc1nnc(NC(=O)C2CC(=O)N(c3ccc(C)cc3)C2)s1 (stereo unspecified) | inactive
* CCCCOC(=O)c1c(NC(=O)C2C3CCC(C3)C2C(=O)O)sc2c1CCCC2 (stereo unspecified) | inactive
* O=C(O)CC(NC(=O)C(c1ccccc1)c1ccccc1)c1ccco1 (stereo unspecified) | inactive
* CCOC(=O)c1c(C)n(C)c2ccc(OC(C)C(=O)OC)cc12 (stereo unspecified) | inactive
* COc1cc(/C=N/Nc2nncc(=O)[nH]2)ccc1O | inactive
* Cc1c(O)ccc2c1oc(=O)c1ccccc12 | inactive
* CCOC(=O)c1c2c(n(Cc3ccccc3)c1C)C(=O)C(=O)c1ccc(Br)cc1-2 | inactive
* O=C1NC(=O)/C(=C/c2ccccc2[N+](=O)[O-])S1 | active
* O=C(O/N=C1/CCCc2c1sc1nc3n(c(=O)c21)CCCCC3)c1ccc([N+](=O)[O-])cc1 | inactive
